- experimental system: Amyloid (AD patient's brain slice) (Homo sapiens)
- Construct: The brain slices were 20 um thick
- Sequence (P05067 672-711 limits assumed): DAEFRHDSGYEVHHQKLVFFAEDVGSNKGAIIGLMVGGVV
- experimental details: IC50 determination with [18F]-PiB by ex vivo competition assay using autoradiography staining
- Format: binding
- particulars: determination 1, vs [18F]-PiB; read-out: IC50 1
pIC50: −log10 of the molar value.
test readout: pIC50

Entry FCCOCCOCCOc1ccc2c(c1)[nH]c1ccccc12 , pIC50 reported as 5.96

I: CN(C)c1ccc2c(c1)[nH]c1cc(OCCOCCOCCF)ccc12
II: FCCOc1ccc2c(c1)[nH]c1ccccc12
Query :: Between the entries labelled I and II , which has a larger pIC50 value on record? Let me know the label of the one you choose.
Result :: I
(I: 6.59, II: 6.00)

* * *

- experimental system: Amyloid (AD patient's brain slice) (Homo sapiens)
- Construct: The brain slices were 20 um thick
- experimental details: IC50 determination with [18F]-PiB by ex vivo competition assay using autoradiography staining
- Format: binding
- particulars: determination 4, vs [18F]-PiB; read-out: IC50 4
test readout: IC50 (nM)

a: O=CNc1ccc2c(c1)[nH]c1cc(OCCF)ccc12
b: O=CNc1ccc2c(c1)[nH]c1cc(OCCOCCOCCF)ccc12
Query :: Between the entries labelled a and b , which has a larger IC50 value on record? Let me know the label of the one you choose.
Result :: b
(b: 900 nM, a: 610 nM)

* * *

- experimental system: Aβ42 insoluble aggregates (Homo sapiens)
- Sequence (P05067 672-713 limits assumed): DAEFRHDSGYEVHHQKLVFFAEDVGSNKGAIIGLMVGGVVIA
- experimental details: Surface plasmon resonance (Biacore) assay, Aβ42 insoluble aggregates
- particulars: SPR; read-out: binding to insoluble aggregates
test readout: pKd
pKd here: minus log base 10 of the concentration, concentration in moles per litre.

Entry FCCOCCOCCOc1ccc2c(c1)[nH]c1ccccc12 , pKd reported as 8.05

* * *

- experimental system: Aβ(1-42) Fibrils (Homo sapiens, UniProt P05067)
- experimental details: Biacore (SPR) screening on immobilized Aβ42 fibrils;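 further: minus means no binding and more plus signs mean higher affinity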
- Format: binding
- particulars: screening compounds at 10 uM
test readout: BINDING LEVELS TO Aβ(1-42) Fibrils

Entry COc1ccc2c(=O)c(-c3ccccc3)c(C)oc2c1OC , BINDING LEVELS TO Aβ(1-42) Fibrils reported as −

Entry CCOc1ccc(Oc2c(C)oc3cc(O)ccc3c2=O)cc1 , BINDING LEVELS TO Aβ(1-42) Fibrils reported as −

Entry CCc1cc2c(=O)c(-c3ccc(F)cc3)c(C)oc2cc1O , BINDING LEVELS TO Aβ(1-42) Fibrils reported as −

Entry O=c1cc(-c2ccccc2)c2ccc(O)c(O)c2o1 , BINDING LEVELS TO Aβ(1-42) Fibrils reported as +++

* * *

- experimental system: Aβ(1-42) Fibrils (Homo sapiens, UniProt P05067)
- experimental details: Biacore (SPR) screening on immobilized Aβ42 fibrils;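 further: minus means no binding and more plus signs mean higher affinity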
- Format: binding
- particulars: screening compounds at 10 uM
test readout: BINDING LEVELS TO Aβ(1-42) Fibrils

Entry Cc1c(-c2ccccc2)c(=O)oc2cc(O)ccc12 , BINDING LEVELS TO Aβ(1-42) Fibrils reported as −

Entry O=c1c(O)c(-c2cccc(O)c2)oc2ccc(O)cc12 , BINDING LEVELS TO Aβ(1-42) Fibrils reported as ++

Entry Fc1cc(F)cc(-c2cn(-c3ccc(F)cc3F)nn2)c1 , BINDING LEVELS TO Aβ(1-42) Fibrils reported as −

FYI, the data here is from patent US20110046378A1.
